Tested on: Escherichia coli TOP10
Experimental Details: shrunken log2 fold change of peptide-encoding DNA abundance (4.5 h post-induction vs induction); higher = less antimicrobial activity (less host growth inhibition)
Details: time post-induction: 4.5 h; library: site-saturation at positions 5, 18, 19, 20
Value Type: shrunken log2 fold change
Give the figure by itself; no unit, no explanation.

Consider the reported shrunken log2 fold change for these sequences:
Sequence Data | shrunken log2 fold change
RRIRRRPPRLPRPRPRPGNEPRP | -0.301
RRIRLRPPRLPRPRPRPHRLPRP | 0.166
RRIRLRPPRLPRPRPRPQAVPRP | 0.0328
RRIRVRPPRLPRPRPRPSISPRP | -0.357
RRIRDRPPRLPRPRPRPGNRPRP | -0.0278
RRIRPRPPRLPRPRPRPFKIPRP | 0.0869

[Q] Return shrunken log2 fold change for the following sequence: "RRIRCRPPRLPRPRPRPNVLPRP"
[A] -0.464

[Q] Look up and report measured shrunken log2 fold change for this entry: "RRIRNRPPRLPRPRPRPRLSPRP"
[A] 0.0939

[Q] Return shrunken log2 fold change for the following sequence: "RRIRHRPPRLPRPRPRPSTGPRP"
[A] -0.24

[Q] Using the record for "RRIRARPPRLPRPRPRPWYIPRP" , state its measured shrunken log2 fold change.
[A] -0.257

[Q] Give a short answer stating reported shrunken log2 fold change for "RRIRVRPPRLPRPRPRPAPCPRP" .
[A] 0.168

[Q] Dear colleague, please send me the reported shrunken log2 fold change for "RRIRKRPPRLPRPRPRPWVCPRP" when you can.
[A] 0.324

----------
System: Escherichia coli TOP10
Experimental Details: shrunken log2 fold change of peptide-encoding DNA abundance (4.5 h post-induction vs induction); higher = less antimicrobial activity (less host growth inhibition)
Details: time post-induction: 4.5 h; library: site-saturation at positions 5, 18, 19, 20
Value Type: shrunken log2 fold change
Reply briefly: the number, and no unit.

Some sequences with recorded shrunken log2 fold change:
Sequence Data | Result Value
RRIRRRPPRLPRPRPRPCCRPRP | 0.197
RRIRMRPPRLPRPRPRPGIQPRP | -0.105
RRIRIRPPRLPRPRPRPYHWPRP | -0.275
RRIRPRPPRLPRPRPRPNPRPRP | 0.596

[Q] Quote shrunken log2 fold change reported for "RRIRRRPPRLPRPRPRPCLMPRP" please.
[A] 0.434

[Q] // fetch shrunken log2 fold change given entry "RRIRPRPPRLPRPRPRPVNSPRP"
[A] -0.196

----------
Attribute: shrunken log2 fold change
Tested on: Escherichia coli TOP10
Experimental Details: shrunken log2 fold change of peptide-encoding DNA abundance (4.5 h post-induction vs induction); higher = less antimicrobial activity (less host growth inhibition)
Details: time post-induction: 4.5 h; library: site-saturation at positions 5, 18, 19, 20

Sequence Data | Assayed Target | shrunken log2 fold change
RRIRPRPPRLPRPRPRPWAVPRP | Escherichia coli TOP10 | -0.227
RRIRKRPPRLPRPRPRPTPCPRP | Escherichia coli TOP10 | 0.692
RRIRRRPPRLPRPRPRPENLPRP | Escherichia coli TOP10 | 0.0548
RRIRTRPPRLPRPRPRPMKRPRP | Escherichia coli TOP10 | 0.298
RRIRHRPPRLPRPRPRPRFPPRP | Escherichia coli TOP10 | 0.0956
RRIRCRPPRLPRPRPRPVERPRP | Escherichia coli TOP10 | 0.0133
RRIRCRPPRLPRPRPRPRNTPRP | Escherichia coli TOP10 | 0.855
RRIRLRPPRLPRPRPRPRFVPRP | Escherichia coli TOP10 | 0.123

[Q] Please report shrunken log2 fold change with Escherichia coli TOP10 for item "RRIRWRPPRLPRPRPRPVLMPRP" .
[A] -0.0411

[Q] Lab note: Escherichia coli TOP10 assay, enter shrunken log2 fold change for "RRIRRRPPRLPRPRPRPSQEPRP" here
[A] -0.225

[Q] # assay system Escherichia coli TOP10: give shrunken log2 fold change of "RRIRFRPPRLPRPRPRPNFEPRP"
[A] -0.0264

[Q] Provide shrunken log2 fold change, system Escherichia coli TOP10, entry "RRIRIRPPRLPRPRPRPEWAPRP"
[A] 0.0716

[Q] Under Escherichia coli TOP10: report shrunken log2 fold change of "RRIRTRPPRLPRPRPRPYMQPRP" .
[A] -0.298

----------
Test system: Escherichia coli TOP10
Experimental Details: shrunken log2 fold change of peptide-encoding DNA abundance (4.5 h post-induction vs induction); higher = less antimicrobial activity (less host growth inhibition)
Details: time post-induction: 4.5 h; library: site-saturation at positions 5, 18, 19, 20
Value Type: shrunken log2 fold change

Here are 6 sequences together with their reported answers.
Sequence Data | shrunken log2 fold change
RRIRWRPPRLPRPRPRPSCGPRP | 0.0847
RRIRNRPPRLPRPRPRPKASPRP | -0.127
RRIRMRPPRLPRPRPRPDHMPRP | 0.0296
RRIRDRPPRLPRPRPRPKTMPRP | -0.0184
RRIRIRPPRLPRPRPRPIRAPRP | -0.634
RRIRERPPRLPRPRPRPVTNPRP | -0.0383

// moving on: another record for shrunken log2 fold change
[Q] Fill in shrunken log2 fold change for record "RRIRKRPPRLPRPRPRPRISPRP"
[A] -0.258

----------
System: Escherichia coli TOP10
Experimental Details: shrunken log2 fold change of peptide-encoding DNA abundance (4.5 h post-induction vs induction); higher = less antimicrobial activity (less host growth inhibition)
Details: time post-induction: 4.5 h; library: site-saturation at positions 5, 18, 19, 20
Value Type: shrunken log2 fold change
Give only the figure.

Sequence Data | Assayed Target | shrunken log2 fold change
RRIRYRPPRLPRPRPRPQEYPRP | Escherichia coli TOP10 | -0.00804
RRIRYRPPRLPRPRPRPAVEPRP | Escherichia coli TOP10 | 0.161
RRIRARPPRLPRPRPRPWIGPRP | Escherichia coli TOP10 | 0.15
RRIRVRPPRLPRPRPRPVWKPRP | Escherichia coli TOP10 | 0.0859
RRIRNRPPRLPRPRPRPNPAPRP | Escherichia coli TOP10 | 0.028

Turning now to a further record.
[Q] For the sequence "RRIRRRPPRLPRPRPRPIYMPRP" , give its measured shrunken log2 fold change value.
[A] -0.138

----------
Test system: Escherichia coli TOP10
Experimental Details: shrunken log2 fold change of peptide-encoding DNA abundance (4.5 h post-induction vs induction); higher = less antimicrobial activity (less host growth inhibition)
Details: time post-induction: 4.5 h; library: site-saturation at positions 5, 18, 19, 20
Value Type: shrunken log2 fold change
Keep the answer to the number alone.

Solved entries:
Sequence Data | shrunken log2 fold change
RRIRLRPPRLPRPRPRPNMHPRP | -0.565
RRIRGRPPRLPRPRPRPTMWPRP | 0.757
RRIRSRPPRLPRPRPRPFHTPRP | -0.232

[Q] State the measured shrunken log2 fold change (Escherichia coli TOP10) of "RRIRGRPPRLPRPRPRPMATPRP"
[A] 1.37

----------
System: Escherichia coli TOP10
Experimental Details: shrunken log2 fold change of peptide-encoding DNA abundance (4.5 h post-induction vs induction); higher = less antimicrobial activity (less host growth inhibition)
Details: time post-induction: 4.5 h; library: site-saturation at positions 5, 18, 19, 20
Measured shrunken log2 fold change, listed per entry for reference.
// return just the number, without any unit appended

Example cases with answers are listed next.
Sequence Data | shrunken log2 fold change
RRIRGRPPRLPRPRPRPMETPRP | 0.00487
RRIRNRPPRLPRPRPRPDHTPRP | -0.0123
RRIRIRPPRLPRPRPRPNSMPRP | -1.23

# evaluate next
[Q] Read the entry "RRIRCRPPRLPRPRPRPMWIPRP" and write its reported shrunken log2 fold change.
[A] 0.085

----------
Tested on: Escherichia coli TOP10;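 note: peptides expressed intracellularly from a pBAD plasmid library in pooled LB shake-flask culture, induced with 0.3% L-arabinose, DNA abundance read by NGS, three biological replicates, DESeq2 with apeglm shrinkage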
Experimental Details: shrunken log2 fold change of peptide-encoding DNA abundance (4.5 h post-induction vs induction); higher = less antimicrobial activity (less host growth inhibition)
Details: time post-induction: 4.5 h; library: site-saturation at positions 5, 18, 19, 20
Value Type: shrunken log2 fold change
Lab note: write the figure by itself, no unit.

Sequence Data | Value Type | Result Value
RRIRCRPPRLPRPRPRPSGIPRP | shrunken log2 fold change | -0.154

[Q] Assign shrunken log2 fold change to the following record: "RRIRLRPPRLPRPRPRPKYNPRP"
[A] -0.703

[Q] Return reported shrunken log2 fold change. Input sequence: "RRIRWRPPRLPRPRPRPNLMPRP"
[A] -0.227

[Q] Assign shrunken log2 fold change to the following record: "RRIRHRPPRLPRPRPRPNNNPRP"
[A] -1.09

[Q] Give shrunken log2 fold change for the following sequence: "RRIRGRPPRLPRPRPRPAEEPRP"
[A] 1.15

[Q] For the sequence "RRIRPRPPRLPRPRPRPHMEPRP" , give its measured shrunken log2 fold change value.
[A] -0.0417

[Q] Return shrunken log2 fold change (reported value) for this sequence: "RRIRCRPPRLPRPRPRPWDAPRP"
[A] -0.758
